Tested System: chymotrypsin (Bos taurus, UniProt P00766)
Test Details: in vitro
Measurement Conditions: isolated enzyme chymotrypsin, pH 7.8, Residual peak area (%)/chymotrypsin
Outcome Measure: remaining at 0.025 h, 60 μM

Give the reported remaining at 0.025 h, 60 μM for CC(C)C[C@H](NC(=O)[C@H](Cc1ccc(O)cc1)NC(=O)[C@H](CCC(=O)O)NC(=O)[C@H](CCC(=O)O)NC(=O)[C@H](Cc1c[nH]c2ccccc12)NC(=O)[C@H](CO)NC(=O)[C@@H](NC(=O)[C@H](Cc1ccccc1)NC(=O)[C@@H](NC(=O)[C@@H](N)[C@@H](C)O)C(C)C)[C@@H](C)O)C(=O)N[C@@H](CC(=O)O)C(=O)N[C@@H](Cc1c[nH]c2ccccc12)C(=O)N[C@H](C(=O)O)C(C)C [PCSK9_1, reference compound] (system: chymotrypsin (Bos taurus, UniProt P00766)). 82.3%

* * *

Tested System: porcine pancreatic elastase (Sus scrofa)
Sequence (P00772 27-266): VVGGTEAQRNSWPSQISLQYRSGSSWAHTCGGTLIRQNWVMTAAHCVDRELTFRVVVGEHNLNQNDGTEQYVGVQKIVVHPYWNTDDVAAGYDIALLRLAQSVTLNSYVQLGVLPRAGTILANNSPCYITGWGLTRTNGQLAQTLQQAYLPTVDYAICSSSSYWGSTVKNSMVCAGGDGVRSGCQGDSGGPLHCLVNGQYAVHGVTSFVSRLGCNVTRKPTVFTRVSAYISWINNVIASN
Test Details: Elastase inhibitory activity of peptides (AAApNA hydrolysis; IC50, Ki, residual activity)
Type: biochemical
Measurement Conditions: peptide 0.1 μM; elastase 0.5 μM, AAApNA 1 mM
Bridge positions count the residues as written; N and C are the ends. Peptide text beside a SMILES is read from it.
Provide the reported Residual activity of elastase of each item.
The answer should read as a number with its unit following.

Illustrative cases are given below, each with its answer.
Compound	Residual activity of elastase
CC[C@H](C)[C@@H]1NC(=O)[C@@H]2CCCN2C(=O)[C@@H]2CCCN2C(=O)[C@H]([C@@H](C)CC)NC(=O)[C@H](CO)NC(=O)[C@H](C)NC(=O)[C@H]([C@@H](C)O)NC(=O)[C@@H](NC(=O)[C@@H](N)C(C)C)CSSC[C@@H](C(=O)N[C@@H](CCC(N)=O)C(=O)O)NC1=O [EC22] (H-VCTASIPPICQ-OH; disulfide 2-10; C-terminus assumed)	92.0 ± 6.8%
CC[C@H](C)[C@H](N)C(=O)N[C@H]1CSSC[C@@H](C(=O)N[C@@H](CCC(N)=O)C(=O)O)NC(=O)[C@H](CCC(N)=O)NC(=O)[C@@H]2CCCN2C(=O)[C@@H]2CCCN2C(=O)[C@H]([C@@H](C)CC)NC(=O)[C@H](CO)NC(=O)[C@H](C)NC(=O)[C@H]([C@@H](C)O)NC1=O [EC19] (H-ICTASIPPQCQ-OH; disulfide 2-10; N-terminus and C-terminus assumed)	96.1 ± 0.9%
CC[C@H](C)[C@@H]1NC(=O)[C@H](CO)NC(=O)[C@H](C)NC(=O)[C@H]([C@@H](C)O)NC(=O)[C@@H](NC(=O)[C@@H](N)CC(C)C)CSSC[C@@H](C(=O)N[C@@H](CCC(N)=O)C(=O)O)NC(=O)[C@H](CCC(N)=O)NC(=O)[C@@H]2CCCN2C(=O)[C@@H]2CCCN2C1=O [EC18] (H-LCTASIPPQCQ-OH; disulfide 2-10; N-terminus and C-terminus assumed)	97.0 ± 4.0%

Now let's try a different one.
Fill in the recorded Residual activity of elastase for this compound, with porcine pancreatic elastase (Sus scrofa) as test system: CC[C@H](C)[C@@H]1NC(=O)[C@@H]2CCCN2C(=O)[C@@H]2CCCN2C(=O)[C@H]([C@@H](C)CC)NC(=O)[C@H](CO)NC(=O)[C@H](C)NC(=O)[C@H]([C@@H](C)O)NC(=O)[C@@H](NC(=O)[C@@H](N)Cc2ccc(O)cc2)CSSC[C@@H](C(=O)N[C@@H](CCC(N)=O)C(=O)O)NC1=O [EC29] (H-YCTASIPPICQ-OH; disulfide 2-10; C-terminus assumed) 92.6 ± 2.7%

* * *

Tested System: chymotrypsin (Bos taurus, UniProt P00766)
Test Details: in vitro
Measurement Conditions: isolated enzyme chymotrypsin, pH 7.8, Residual peak area (%)/chymotrypsin
Outcome Measure: remaining at 0.15 h, 60 μM (%)
Answers are plain numbers, in %.

Hello, I am looking for reported remaining at 0.15 h, 60 μM with chymotrypsin (Bos taurus, UniProt P00766) for CC(C)C[C@H](NC(=O)[C@H](Cc1ccc(O)cc1)NC(=O)[C@H](CCC(=O)O)NC(=O)[C@H](CCC(=O)O)NC(=O)[C@H](Cc1c[nH]c2ccccc12)NC(=O)[C@H](CO)NC(=O)[C@@H](NC(=O)[C@H](Cc1ccccc1)NC(=O)[C@@H](NC(=O)[C@@H](N)[C@@H](C)O)C(C)C)[C@@H](C)O)C(=O)N[C@@H](CC(=O)O)C(=O)N[C@@H](Cc1c[nH]c2ccccc12)C(=O)N[C@H](C(=O)O)C(C)C [PCSK9_1, reference compound] . Could you help? 75.5

* * *

Tested System: bovine trypsin (Bos taurus)
Sequence (P00760 24-246): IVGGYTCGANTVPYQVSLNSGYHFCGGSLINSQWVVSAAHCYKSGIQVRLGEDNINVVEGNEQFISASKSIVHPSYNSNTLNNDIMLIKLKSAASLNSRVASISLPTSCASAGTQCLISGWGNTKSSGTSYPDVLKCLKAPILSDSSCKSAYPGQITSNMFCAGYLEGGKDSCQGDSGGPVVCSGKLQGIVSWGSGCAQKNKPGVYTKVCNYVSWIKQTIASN
Test Details: Trypsin inhibitory activity of peptides (BApNA hydrolysis, OD405; IC50, Ki, residual activity)
Type: biochemical
Measurement Conditions: peptide 0.000098 μM
Bridge positions count the residues as written; N and C are the ends. Peptide text beside a SMILES is read from it.
Outcome Measure: Residual trypsin activity

Compound	Residual trypsin activity
CC[C@H](C)[C@@H]1NC(=O)[C@@H]2CCCN2C(=O)[C@@H]2CCCN2C(=O)[C@H]([C@@H](C)CC)NC(=O)[C@H](C)NC(=O)[C@H](CCCCN)NC(=O)[C@H]([C@@H](C)O)NC(=O)[C@H](C)NC(=O)[C@H](CCCNC(=N)N)NC(=O)CNC(=O)[C@@H](N)CSSC[C@@H](C(=O)N[C@@H](Cc2ccccc2)C(=O)O)NC1=O [BT27] (H-CGRATKAIPPICF-OH; disulfide 1-12; C-terminus assumed)	101.0 ± 0.7%
CC[C@H](C)[C@@H]1NC(=O)[C@@H]2CCCN2C(=O)[C@@H]2CCCN2C(=O)[C@H]([C@@H](C)CC)NC(=O)[C@H](CO)NC(=O)[C@H](CCCCN)NC(=O)[C@H]([C@@H](C)O)NC(=O)[C@@H](NC(=O)[C@@H](N)CCCNC(=N)N)CSSC[C@@H](C(=O)N[C@@H](Cc2ccccc2)C(=O)O)NC1=O [BT45] (H-RCTKSIPPICF-OH; disulfide 2-10; C-terminus assumed)	99.3 ± 5.3%
CC[C@H](C)[C@@H]1NC(=O)[C@@H]2CCCN2C(=O)[C@@H]2CCCN2C(=O)[C@H]([C@@H](C)CC)NC(=O)[C@H](CO)NC(=O)[C@H](CCCCN)NC(=O)[C@H]([C@@H](C)O)NC(=O)[C@H](C)NC(=O)[C@H](CCCNC(=N)N)NC(=O)[C@@H]2CCCN2C(=O)[C@@H](N)CSSC[C@@H](C(=O)N[C@@H](Cc2ccccc2)C(=O)O)NC1=O [BT66] (H-CPRATKSIPPICF-OH; disulfide 1-12; C-terminus assumed)	107.0 ± 6.2%

// below: Residual trypsin activity requested for another compound
// lookup Residual trypsin activity for CC[C@H](C)[C@@H]1NC(=O)[C@@H]2CCCN2C(=O)[C@@H]2CCCN2C(=O)[C@H]([C@@H](C)CC)NC(=O)[C@H](CO)NC(=O)[C@H](CCCCN)NC(=O)[C@H]([C@@H](C)O)NC(=O)[C@H](C)NC(=O)[C@H](CCCNC(=N)N)NC(=O)[C@H](C)NC(=O)[C@@H](N)CSSC[C@@H](C(=O)N[C@@H](Cc2ccccc2)C(=O)O)NC1=O [BT67] (H-CARATKSIPPICF-OH; disulfide 1-12) 107.0 ± 5.5%

* * *

Assignment: determine reported Residual activity of chymotrypsin for the given compounds.
Tested System: α-chymotrypsin (Bos taurus, UniProt P00766)
Test Details: Chymotrypsin inhibitory activity of peptides (AAPFpNA hydrolysis; IC50, Ki, residual activity)
Type: biochemical
Measurement Conditions: peptide 100 μM
Bridge positions count the residues as written; N and C are the ends. Peptide text beside a SMILES is read from it.
One number for each entry, in %.

Some compounds with known Residual activity of chymotrypsin results, for comparison:
Compound	Unit Annotation	Residual activity of chymotrypsin
CC[C@H](C)[C@@H]1NC(=O)[C@@H]2CCCN2C(=O)[C@@H]2CCCN2C(=O)[C@H]([C@@H](C)CC)NC(=O)[C@H](CO)NC(=O)[C@H](Cc2ccccc2)NC(=O)[C@H]([C@@H](C)O)NC(=O)[C@H](C)NC(=O)[C@H]([C@@H](C)O)NC(=O)CNC(=O)[C@@H](N)CSSC[C@@H](C(=O)N[C@@H](CC(N)=O)C(=O)O)NC1=O [CH27] (H-CGTATFSIPPICN-OH; disulfide 1-12; N-terminus and C-terminus assumed)	%	2.9
CC[C@H](C)[C@@H]1NC(=O)[C@H](CO)NC(=O)[C@H](Cc2ccc(O)cc2)NC(=O)[C@H]([C@@H](C)O)NC(=O)[C@@H](NC(=O)[C@@H](N)CO)CSSC[C@@H](C(=O)N[C@@H](Cc2ccc(O)cc2)C(=O)NCC(=O)O)NC(=O)[C@H](CCC(N)=O)NC(=O)[C@@H]2CCCN2C(=O)[C@@H]2CCCN2C1=O [CH4] (H-SCTYSIPPQCYG-OH; disulfide 2-10; N-terminus and C-terminus assumed)	%	0.7
CC[C@H](C)[C@@H]1NC(=O)[C@H](CO)NC(=O)[C@H](Cc2ccc(O)cc2)NC(=O)[C@H]([C@@H](C)O)NC(=O)[C@H](C)NC(=O)[C@H](C)NC(=O)CNC(=O)[C@@H](N)CSSC[C@@H](C(=O)N[C@@H](Cc2ccccc2)C(=O)O)NC(=O)[C@H](CCCCN)NC(=O)[C@H](C)NC(=O)[C@@H]2CCCN2C1=O [CH31] (H-CGAATYSIPAKCF-OH; disulfide 1-12; N-terminus and C-terminus assumed)	%	2.6

Would you kindly look at the next entry?
What is its Residual activity of chymotrypsin for α-chymotrypsin (Bos taurus, UniProt P00766)? Entry: CC[C@H](C)[C@@H]1NC(=O)[C@H](CO)NC(=O)[C@H](Cc2ccc(O)cc2)NC(=O)[C@H]([C@@H](C)O)NC(=O)[C@H](C)NC(=O)[C@H](C)NC(=O)CNC(=O)CNC(=O)[C@@H](N)CSSC[C@@H](C(=O)N[C@@H](Cc2ccccc2)C(=O)O)NC(=O)[C@H](CCCCN)NC(=O)[C@H](C)NC(=O)[C@@H]2CCCN2C1=O [CH32] (H-CGGAATYSIPAKCF-OH; disulfide 1-13; N-terminus and C-terminus assumed) 2.2

These entries and their values trace back to patent US20230416329A1.
